Where these numbers come from: ChEMBL document CHEMBL2407057

assay: Prodrug activation assessed as induction of NaBH4-induced DiMeDiSe release at 60 mM after 8 hrs by head space gas chromatography mass spectrometry analysis; details: 60000 µM
observationType: Drug metabolism

>  <chemicalString>
C[Se]/C(=N\C(=O)c1cc(-c2ccccc2)nc2ccccc12)NC(=O)c1cc(-c2ccccc2)nc2ccccc12

>  <Drug metabolism>
Not Active

$$$$
>  <chemicalString>
C[Se]/C(=N\C(=O)c1sccc1Cl)NC(=O)c1sccc1Cl

>  <Drug metabolism>
Active

$$$$
>  <chemicalString>
C[Se]/C(=N\C(=O)c1csc([N+](=O)[O-])c1)NC(=O)c1csc([N+](=O)[O-])c1

>  <Drug metabolism>
Not Active

$$$$
>  <chemicalString>
C[Se]/C(=N\C(=O)c1cc2ccccc2s1)NC(=O)c1cc2ccccc2s1

>  <Drug metabolism>
Not Active

$$$$
>  <chemicalString>
C[Se]/C(=N\C(=O)c1c2ccccc2nc2ccccc12)NC(=O)c1c2ccccc2nc2ccccc12

>  <Drug metabolism>
Not Active

$$$$

The molecule identified as C[Se]/C(=N\C(=O)c1ccco1)NC(=O)c1ccco1 registered its Drug metabolism at Active

Entry C[Se]/C(=N\C(=O)c1cccs1)NC(=O)c1cccs1 ; Drug metabolism = Active

Summary for this molecule, C[Se]/C(=N\C(=O)c1ccno1)NC(=O)c1ccno1 : Drug metabolism is Active

GET /value?item= C[Se]/C(=N\C(=O)c1cnc2ccccc2c1)NC(=O)c1cnc2ccccc2c1 &field=Drug metabolism returns Not Active

The recorded Drug metabolism for C[Se]/C(=N\C(=O)c1ccc2c(c1)OCO2)NC(=O)c1ccc2c(c1)OCO2 is Not Active

###

assay: Prodrug activation assessed as induction of NaBH4-induced MeSeH release at 60 mM after 8 hrs by head space gas chromatography mass spectrometry analysis; conditions: 60000 µM
observationType: Drug metabolism

Reference set (4 entries):
>  <chemicalString>
C[Se]/C(=N\C(=O)c1cc2ccccc2s1)NC(=O)c1cc2ccccc2s1

>  <Drug metabolism>
Not Active

$$$$
>  <chemicalString>
C[Se]/C(=N\C(=O)c1cnc2ccccc2c1)NC(=O)c1cnc2ccccc2c1

>  <Drug metabolism>
Not Active

$$$$
>  <chemicalString>
C[Se]/C(=N\C(=O)c1c2ccccc2nc2ccccc12)NC(=O)c1c2ccccc2nc2ccccc12

>  <Drug metabolism>
Not Active

$$$$
>  <chemicalString>
C[Se]/C(=N\C(=O)c1ccc2c(c1)OCO2)NC(=O)c1ccc2c(c1)OCO2

>  <Drug metabolism>
Not Active

$$$$

Sample C[Se]/C(=N\C(=O)c1sccc1Cl)NC(=O)c1sccc1Cl ; Drug metabolism observed: Active

The measured Drug metabolism associated with C[Se]/C(=N\C(=O)c1ccno1)NC(=O)c1ccno1 reads Not Active

The compound identified as C[Se]/C(=N\C(=O)c1cccs1)NC(=O)c1cccs1 registered its Drug metabolism at Not Active

Per the records, this compound ( C[Se]/C(=N\C(=O)c1ccco1)NC(=O)c1ccco1 ) has Drug metabolism equal to Active

Note to self: Drug metabolism recorded for C[Se]/C(=N\C(=O)c1cc(-c2ccccc2)nc2ccccc12)NC(=O)c1cc(-c2ccccc2)nc2ccccc12 was Not Active

The compound listed as C[Se]/C(=N\C(=O)c1csc([N+](=O)[O-])c1)NC(=O)c1csc([N+](=O)[O-])c1 shows Drug metabolism equal to Active
